target.or.test.system: human active recombinant p38α-6His tagged (Homo sapiens)
Sequence (Q16539 whole entry): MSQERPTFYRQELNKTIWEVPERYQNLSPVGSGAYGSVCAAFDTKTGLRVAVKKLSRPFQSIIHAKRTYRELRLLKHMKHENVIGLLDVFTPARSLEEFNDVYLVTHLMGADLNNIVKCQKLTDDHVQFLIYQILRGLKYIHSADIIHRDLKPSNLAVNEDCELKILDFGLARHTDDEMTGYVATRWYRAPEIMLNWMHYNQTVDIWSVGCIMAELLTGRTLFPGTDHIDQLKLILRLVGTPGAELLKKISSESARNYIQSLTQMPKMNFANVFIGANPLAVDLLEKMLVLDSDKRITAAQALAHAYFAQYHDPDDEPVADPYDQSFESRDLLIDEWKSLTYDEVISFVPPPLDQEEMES
experimental.details: P38 Alpha Enzyme Assay (AlphaScreen, biotinylated-ATF2 substrate);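 further: 0.5 nM final p38α, reaction started with ATP and run 45 min at 37 °C, phospho-ATF2 read by antibody-based AlphaScreen, background wells quenched with EDTA before ATP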
Format: biochemical
assay.setup: p38 alpha enzyme inhibition; means of replicate determinations; 4 h pre-incubation at 37° C.; SD of assay 0.2-0.3 log units
reported.endpoint: pIC50

Solved cases below.
[
  {
    "compound": "Cc1ccc(C(=O)NC2CC2)cc1-n1ccnc(NCCN(C)C)c1=O",
    "pIC50": 5.9
  },
  {
    "compound": "CONC(=O)c1ccc(C)c(-n2ccnc(N[C@@H](c3ccccc3)[C@@H](C)CN3CCCC3)c2=O)c1",
    "pIC50": 9.6
  },
  {
    "compound": "Cc1ccc(C(=O)NC2CC2)cc1-n1ccnc(NCC(C)(C)C)c1=O",
    "pIC50": 6.9
  }
]

1: Cc1ccc(C(=O)NC2CC2)cc1-n1ccnc(NCc2cccc(C(=O)NC3CC3)c2)c1=O
2: CC(C)(Nc1nccn(-c2cc(C(=O)NC3CC3)ccc2Cl)c1=O)c1ccccc1OCCNCCO
Q) Parameter metric = pIC50. Return the lower-valued option from 1 and 2 . I would appreciate it if you answered with the label of your choice.
A) 1
